Test system: SF-539 CNS
ASSAY SUMMARY: NCI tumour cell line growth inhibition, 48 h; in the data active = GI50 below about 0.43 µM; inactive = the rest
Outcome codes: Y (active), N (inactive)

INSERT INTO assay_data (compound, answer_label) VALUES
  ('O=C1C=CN(C2OC(CO)C(O)C2O)C(=O)C1 (centres undefined)', 'N'),
  ('CCn1c(-c2nonc2N)nc2c(C#CC(C)(C)O)nc(O[C@@H](CN)c3ccccc3)cc21', 'Y'),
  ('O=C(c1ccco1)c1c(C(F)(F)F)nc2cc(C(F)(F)F)ccc2[n+]1[O-]', 'N'),
  ('COc1cc(-c2nn(C(=O)NS(=O)(=O)c3ccc(C)cc3)cc2-c2ccncc2)ccc1Cl', 'N'),
  ('O=C(Nc1cccc2cccnc12)c1ccc(N2C(=O)[C@@H]3[C@H](C2=O)[C@@H]2C=C[C@H]3C2)cc1', 'N'),
  ('COc1cccc(Cn2cc3c(c2)-c2oncc2CC3)c1', 'Y'),
  ('COc1ccc(NC(=O)Nc2ccc(Nc3nc(C)cc(Nc4ccc(C)cc4)n3)cc2)cc1', 'N'),
  ('COc1ccccc1CNC(=O)C1c2ccccc2C(=O)N(CC(C)C)C1c1cccs1 (centres undefined)', 'N'),
  ('O=C(NCCN1CCOCC1)Nc1ccc(-c2cc3c(Nc4ccc(Oc5cccc(C(F)(F)F)c5)c(Cl)c4)ncnc3s2)cc1', 'N'),
  ('COc1ccc2[nH]c(-c3cccc(N(C)C)c3)cc(=O)c2c1', 'Y'),
  ('COc1cc(C2CC(c3ccc4c(c3)OCO4)=NN2C(C)=O)cc(OC)c1OC (centres undefined)', 'N'),
  ('N=C(N)c1ccc(-c2ccc(-c3ccc(Cl)cn3)s2)cc1', 'N'),
  ('COc1ccc(NC(=O)c2sc3nc(C)c(C(O)c4ccc(OC)cc4)cc3c2N)cc1 (centres undefined)', 'N'),
  ('CCCCCCNC(=O)Oc1ccc(/C(=C(\C)c2ccccc2)c2ccc(OCCN3CCCCC3)cc2)cc1', 'N');
